Biological target: 210K ß-glucosidase
Construct: native, purified from digestive fluid; 210 kDa by SDS-PAGE; glycoprotein
Assay: inhibition of 4MU-ß-glucoside hydrolysis, fluorometric; Cornish-Bowden
Conditions: substrate 4MU-ß-glucoside; 37°C; mixed
Attribute measured: Ki (µM)
I only need the number, in µM, no unit after it.

Req: What reported Ki corresponds to O=C1O[C@H](CO)[C@@H](O)[C@H](O)[C@H]1O [D-glucono-1,5-lactone] on 210K ß-glucosidase?
Resp: 8.1
